- ASSAY NAME: Solubility evaluation in polymerizable polysiloxane-containing formulation
- Format: physicochemical
- CONDITION CONTEXT: 0.06 g photochromic compound in 1.50 g polymerizable polysiloxane-containing formulation of Table 1; stirred 24 hours at room temperature; visual observation
MEASURED ENDPOINT: Observed Solubility

{"MOLECULE": "C=C(C)C(=O)OCCOC(=O)CCC(=O)N1CCN(c2ccc(C3(c4ccccc4)C=Cc4c5c(c6cc(N7CCCCC7)c(OC)cc6c4O3)-c3ccc([Si](C)(C)C)cc3C5(C)C)cc2)CC1 (stereo not shown)", "MEASURED VALUE": "excellent"}
{"MOLECULE": "C=C(C)C(=O)OCCOCCOCCOc1ccc(C2(c3ccccc3)C=Cc3c4c(c5cc(N6CCCCC6)c(OC)cc5c3O2)-c2ccc(-c3ccc([Si](C)(C)C)cc3)cc2C4(CCC)CCC)cc1 (stereo not shown)", "MEASURED VALUE": "excellent"}
{"MOLECULE": "C=C(C)C(=O)OCCOCCOCCOc1ccc(C2(c3ccccc3)C=Cc3c4c(c5cc(N6CCCCC6)c(OC)cc5c3O2)-c2ccc(-c3ccccc3)cc2C4(CCC)CCC)cc1 (stereo not shown)", "MEASURED VALUE": "poor"}
{"MOLECULE": "C=C(C)C(=O)OCCOC(=O)CCC(=O)N1CCN(c2ccc(C3(c4ccccc4)C=Cc4c5c(c6cc(N7CCCCC7)c(OC)cc6c4O3)-c3ccccc3C5(C)C)cc2)CC1 (stereo not shown)", "MEASURED VALUE": "poor"}
